- Tested on: collagenase (MMP-1)
- TEST_PROTOCOL: IL-1β-induced collagenase (MMP-1) production by dermal fibroblasts, ELISA
- Assay type: cell-based, human
- CONDITION_PARAMETERS: IL1β (100 pg/mL) + peptide 100 ng/mL, added 2 hours before IL-1β, 48 hrs; IL1β + PBS 1351, PBS + PBS 556
EXPERIMENTAL_READOUT: Collagenase (ng/mL)
Provide only the numeric value, understood in ng/mL.

FYLRNNQ (IL-1ra peptides) [SEQ ID NO: 22]; 1514
RPSGRKSSKMQAFRI (IL-1ra peptides) [SEQ ID NO: 19]; 1746
NNQLVAGY (IL-1ra peptides) [SEQ ID NO: 23]; 541
FYLRNNQLVAGYLQG (IL-1ra peptides) [SEQ ID NO: 21]; 2142
MQAFRIWDVNQKTFYLR (IL-1ra peptides) [SEQ ID NO: 20]; 2644

Attention now shifts to the item below.
Q: Given the entry LVAGYLQG (IL-1ra peptides) [SEQ ID NO: 24] , report its measured Collagenase.
Ans: 857
